Tested on: IL-6 release from RAW264.7 cells
Experiment: IL-6 release from LPS stimulated RAW264.7 cells
Assay type: cell-based, mouse
Conditions: RAW 264.7 cells; tosylate
recorded_metric: pEC50
When answering, recall that pEC50 equals minus log10 of the concentration in mol/L, and write that number alone.

Please report the measured pEC50 for Cc1ccc(S(=O)(=O)O)cc1.O=C(NC1=CC(=O)C2OC2C1O)c1ncccc1O (racemic) [Example 14, tosylate]
5.48

---

Biological target: RelB (Homo sapiens)
Sequence (Q01201 1-579): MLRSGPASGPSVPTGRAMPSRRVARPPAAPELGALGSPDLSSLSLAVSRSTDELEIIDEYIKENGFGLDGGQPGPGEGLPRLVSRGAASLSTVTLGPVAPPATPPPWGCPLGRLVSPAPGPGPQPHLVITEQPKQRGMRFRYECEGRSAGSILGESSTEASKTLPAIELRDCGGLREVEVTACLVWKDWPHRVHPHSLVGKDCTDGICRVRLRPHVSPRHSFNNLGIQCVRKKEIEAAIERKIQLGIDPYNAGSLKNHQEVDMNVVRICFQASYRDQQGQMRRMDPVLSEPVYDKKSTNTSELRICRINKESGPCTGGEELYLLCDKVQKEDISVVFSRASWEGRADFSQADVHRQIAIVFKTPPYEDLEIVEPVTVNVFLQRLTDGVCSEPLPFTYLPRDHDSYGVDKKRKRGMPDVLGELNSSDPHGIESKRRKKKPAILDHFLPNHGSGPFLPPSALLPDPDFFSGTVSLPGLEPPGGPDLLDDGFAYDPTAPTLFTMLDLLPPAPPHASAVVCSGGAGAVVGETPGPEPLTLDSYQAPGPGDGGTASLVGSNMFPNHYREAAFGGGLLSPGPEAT
Sequence (Q00653 1-454 partner limits assumed): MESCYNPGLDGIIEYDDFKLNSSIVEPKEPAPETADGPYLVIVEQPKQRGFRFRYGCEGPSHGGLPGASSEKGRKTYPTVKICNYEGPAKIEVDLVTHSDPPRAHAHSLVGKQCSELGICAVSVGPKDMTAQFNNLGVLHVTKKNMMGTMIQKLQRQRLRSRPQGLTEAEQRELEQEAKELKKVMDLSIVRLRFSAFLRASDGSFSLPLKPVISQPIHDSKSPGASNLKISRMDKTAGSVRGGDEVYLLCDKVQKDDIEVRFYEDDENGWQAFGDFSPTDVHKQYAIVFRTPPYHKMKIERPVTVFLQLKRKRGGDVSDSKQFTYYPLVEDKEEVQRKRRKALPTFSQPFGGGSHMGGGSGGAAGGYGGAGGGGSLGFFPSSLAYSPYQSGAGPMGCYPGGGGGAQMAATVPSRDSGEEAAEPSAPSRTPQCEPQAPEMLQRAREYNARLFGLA
Test: TransAM NF-κB Family DNA Binding ELISA, RelB
Conditions: read-out: RelB binding % inhibit. at 5 uM, at 5 uM
Label criterion not met if inhibition at 5 µM falls below 20%; label criterion met in every other case.

Solved entries (count: 5):
1) O=C(NC1=CC(=O)C2OC2C1O)c1cnc2ccc(Cl)cc2c1O (racemic): criterion not met
2) O=C(NC1=CC(=O)C2OC2C1O)c1nc2ccccc2cc1O (racemic): criterion not met
3) Cc1ccc(C(=O)NC2=CC(=O)C3OC3C2O)c(O)n1 (racemic): criterion met
4) O=C(NC1=CC(=O)C2OC2C1O)c1cnccc1O (racemic): criterion met
5) O=C(NC1=CC(=O)C2OC2C1O)c1cnc(N2CCCCC2)nc1O (racemic): criterion not met

Say whether O=C(NC1=CC(=O)C2OC2C1O)c1cc(Cl)cnc1O (racemic) shows inhibition at 5 µM of 20% or more.
criterion met

Say whether O=C(NC1=CC(=O)C2OC2C1O)c1cnc(-c2ccccc2)nc1O (racemic) shows inhibition at 5 µM of 20% or more.
criterion met

Say whether COc1cccnc1C(=O)NC1=CC(=O)C2OC2C1O (racemic) shows inhibition at 5 µM of 20% or more.
criterion met

Say whether O=C(NC1=CC(=O)C2OC2C1O)c1nc2ccccc2nc1O (racemic) shows inhibition at 5 µM of 20% or more.
criterion met

Say whether O=C(NC1=CC(=O)C2OC2C1O)c1cnc2c(C(F)(F)F)cccc2c1O (racemic) shows inhibition at 5 µM of 20% or more.
criterion not met

---

System: NF-κB
Test: 293-cell pTRH1-NF-κB-dscGFP reporter assay, TNF-α induced
Format: cell-based
Details: 2 hours pre-treatment, 20 ng/ml TNF-α 18 hours; median of three experiments ± standard error; read-out: median IC50, expression of the Green fluorescent protein gene
Excerpt: Inhibition of NF-κB in cells by the compound of Example 1. Two reporter cell assays were used to determine the ability of the compound of Example 1 to inhibit NE-KB driven transcription. […] Following the induction, luminescence or fluorescence was quantified using a Beckman-Coulter 2300 plate reader. […] As a control, 0.5% DMSO treated and untreated cells were compared to verify that the Example 1 carrier had no effect on the expression of luciferase or in the readout of the assay. […]
recorded_metric: pIC50
When answering, recall that pIC50 equals minus log10 of the concentration in mol/L, and write that number alone.

Provide measured pIC50 on NF-κB for O=C(NC1=CC(=O)C2OC2C1O)c1cccnc1O (racemic) [Example 1] please.
5.21

---

Tested on: NF-κB
Test: 293-cell pNF-κB-luc reporter assay, TNF-α induced
Assay type: cell-based
Conditions: HEK293 cells, NF-κB driven luciferase expression; trifluoroacetate; read-out: 293/NFkB-luc EC50
Structures can show the parent of a compound that is named as a salt.
recorded_metric: EC50 (µM)
Only the number, expressed in µM, is required.

Past entries and their recorded results:
1. COc1ncccc1C(=O)NC1=CC(=O)C2OC2C1O (racemic) [Example 21, trifluoroacetate]: 5.8
2. COc1c(C(=O)NC2=CC(=O)C3OC3C2O)ccc2cccnc12 (racemic) [Example 33, trifluoroacetate]: 0.53

Please report the measured EC50 for O=C(NC1=CC(=O)C2OC2C1O)c1ncccc1O.O=C(O)C(F)(F)F (racemic) [Example 13, trifluoroacetate]
9.2

---

Biological target: c-Rel (Homo sapiens)
Sequence (Q04864 2-619 limits assumed): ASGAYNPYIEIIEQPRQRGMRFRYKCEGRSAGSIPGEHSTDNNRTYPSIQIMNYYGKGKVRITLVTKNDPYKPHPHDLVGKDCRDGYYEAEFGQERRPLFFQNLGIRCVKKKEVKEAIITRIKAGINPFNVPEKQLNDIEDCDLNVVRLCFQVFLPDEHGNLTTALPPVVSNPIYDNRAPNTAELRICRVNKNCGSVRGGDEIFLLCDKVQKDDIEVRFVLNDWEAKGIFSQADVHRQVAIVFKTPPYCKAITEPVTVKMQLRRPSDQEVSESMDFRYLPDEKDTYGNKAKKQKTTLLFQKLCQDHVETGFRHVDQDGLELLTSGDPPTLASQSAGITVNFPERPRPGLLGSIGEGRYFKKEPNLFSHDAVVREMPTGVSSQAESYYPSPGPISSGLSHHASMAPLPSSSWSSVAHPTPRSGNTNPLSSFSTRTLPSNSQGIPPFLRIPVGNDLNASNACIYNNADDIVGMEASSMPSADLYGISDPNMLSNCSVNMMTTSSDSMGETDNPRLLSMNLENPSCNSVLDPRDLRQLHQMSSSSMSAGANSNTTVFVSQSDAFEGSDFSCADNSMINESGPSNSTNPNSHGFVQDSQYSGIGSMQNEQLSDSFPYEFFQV
Experiment: TransAM NF-κB Family DNA Binding ELISA, c-Rel
Conditions: read-out: c-Rel binding % inhibit. at 5 uM, at 5 uM
recorded_metric: inhibition at 5 µM (%)
Only the number, expressed in %, is required.

Past entries and their recorded results:
1. O=C(NC1=CC(=O)C2OC2C1O)c1cnc2c(C(F)(F)F)cccc2c1O (racemic): 27
2. O=C(NC1=CC(=O)C2OC2C1O)c1cnc(-c2ccccc2)nc1O (racemic): 46
3. Cc1ccc(C(=O)NC2=CC(=O)C3OC3C2O)c(O)n1 (racemic): 54

Please report the measured inhibition at 5 µM for COc1cccnc1C(=O)NC1=CC(=O)C2OC2C1O (racemic)
40

Please report the measured inhibition at 5 µM for O=C(NC1=CC(=O)C2OC2C1O)c1cnc2ccc(Cl)cc2c1O (racemic)
12

Please report the measured inhibition at 5 µM for O=C(NC1=CC(=O)C2OC2C1O)c1cnc(N2CCCCC2)nc1O (racemic)
40

Please report the measured inhibition at 5 µM for O=C(NC1=CC(=O)C2OC2C1O)c1nc2ccccc2cc1O (racemic)
6

Please report the measured inhibition at 5 µM for O=C(NC1=CC(=O)C2OC2C1O)c1cnccc1O (racemic)
23

Please report the measured inhibition at 5 µM for O=C(NC1=CC(=O)C2OC2C1O)c1nc2ccccc2nc1O (racemic)
44

Please report the measured inhibition at 5 µM for O=C(NC1=CC(=O)C2OC2C1O)c1cc(Cl)cnc1O (racemic)
63

---

Examples of compounds with documented RelB binding % inhibit. at 5 uM follow.
Target: RelB (Homo sapiens, UniProt Q01201)
Experiment: TransAM NF-κB Family DNA Binding ELISA, RelB
Details: at 5 uM
Param answer (str): number followed by unit.

Please report the measured RelB binding % inhibit. at 5 uM for Cc1ccc(S(=O)(=O)O)cc1.O=C(NC1=CC(=O)C2OC2C1O)c1ncccc1O (racemic) [Example 14]
9%

Please report the measured RelB binding % inhibit. at 5 uM for O=C(NC1=CC(=O)C2OC2C1O)c1ncccc1O (racemic) [Example 3]
0%

Please report the measured RelB binding % inhibit. at 5 uM for CS(=O)(=O)O.O=C(NC1=CC(=O)C2OC2C1O)c1ncccc1O (racemic) [Example 12]
6%

Please report the measured RelB binding % inhibit. at 5 uM for O=C(NC1=CC(=O)C2OC2C1O)c1ncccc1O.O=C(O)C(F)(F)F (racemic) [Example 13]
10%

---

Biological target: p50 (Homo sapiens, UniProt P19838)
Sequence (P19838 1-433 limits assumed): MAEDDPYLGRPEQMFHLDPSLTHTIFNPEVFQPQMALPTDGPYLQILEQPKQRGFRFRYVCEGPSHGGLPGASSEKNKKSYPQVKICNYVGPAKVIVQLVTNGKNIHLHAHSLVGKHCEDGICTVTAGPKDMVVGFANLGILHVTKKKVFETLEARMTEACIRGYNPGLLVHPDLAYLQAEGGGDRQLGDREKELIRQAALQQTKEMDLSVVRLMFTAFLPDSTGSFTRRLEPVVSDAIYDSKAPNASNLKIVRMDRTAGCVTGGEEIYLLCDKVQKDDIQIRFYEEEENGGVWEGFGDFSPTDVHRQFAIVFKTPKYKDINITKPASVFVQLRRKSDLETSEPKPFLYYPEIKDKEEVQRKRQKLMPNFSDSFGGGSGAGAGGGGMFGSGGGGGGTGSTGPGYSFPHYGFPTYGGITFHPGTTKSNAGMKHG
Test: TransAM NF-κB Family DNA Binding ELISA, p50
Settings: read-out: p50 binding % inhibit. at 5 uM
recorded_metric: inhibition at 5 µM (%)
Only the number, expressed in %, is required.

1) O=C(NC1=CC(=O)C2OC2C1O)c1nc2ccccc2cc1O (racemic): 0
2) O=C(NC1=CC(=O)C2OC2C1O)c1cnc(-c2ccccc2)nc1O (racemic): 16
3) O=C(NC1=CC(=O)C2OC2C1O)c1nc2ccccc2nc1O (racemic): 11
4) O=C(NC1=CC(=O)C2OC2C1O)c1cc(Cl)cnc1O (racemic): 19
5) Cc1ccc(C(=O)NC2=CC(=O)C3OC3C2O)c(O)n1 (racemic): 6
6) COc1cccnc1C(=O)NC1=CC(=O)C2OC2C1O (racemic): 1
7) O=C(NC1=CC(=O)C2OC2C1O)c1cnc(N2CCCCC2)nc1O (racemic): 4

Proceeding to the next compound to report its inhibition at 5 µM.
Please report the measured inhibition at 5 µM for O=C(NC1=CC(=O)C2OC2C1O)c1cnc2c(C(F)(F)F)cccc2c1O (racemic)
0
